Values from ChEMBL document CHEMBL4049434

targetSystem: Muscarinic acetylcholine receptor M2 (Homo sapiens, UniProt P08172)
Sequence (P08172 whole entry): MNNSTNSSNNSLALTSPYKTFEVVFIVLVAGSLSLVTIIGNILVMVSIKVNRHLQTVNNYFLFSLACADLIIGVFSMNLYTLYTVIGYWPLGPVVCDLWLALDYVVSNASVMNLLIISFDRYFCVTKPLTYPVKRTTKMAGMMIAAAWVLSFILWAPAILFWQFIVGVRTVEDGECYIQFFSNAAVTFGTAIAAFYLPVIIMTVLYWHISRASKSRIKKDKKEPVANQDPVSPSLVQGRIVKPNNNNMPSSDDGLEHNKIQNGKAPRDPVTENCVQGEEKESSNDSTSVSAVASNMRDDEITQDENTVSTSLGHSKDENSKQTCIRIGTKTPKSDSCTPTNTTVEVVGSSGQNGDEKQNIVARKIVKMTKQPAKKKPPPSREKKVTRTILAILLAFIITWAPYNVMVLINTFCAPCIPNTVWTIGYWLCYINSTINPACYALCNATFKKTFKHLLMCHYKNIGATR
protocolDescription: Displacement of [3H]NMS from human muscarinic acetylcholine receptor M2 expressed in CHO cells after 2 hrs
Type: cell-based
outcomeMeasure: Ki (nM)
Note: unit nM is implicit; provide only the numeric part.

Asked: Given the molecule `C[N+](C)(CCCCCC[N+](C)(C)CCCN1C(=O)c2ccccc2C1=O)CCCN1C(=O)c2ccccc2C1=O` , write its reported Ki.
Given back: 31.6

----------
targetSystem: Muscarinic acetylcholine receptor M2 (Homo sapiens)
protocolDescription: Displacement of [3H]Dimethyl-W84 from human muscarinic acetylcholine receptor M2 expressed in CHO cells after 2 hrs
Assay type: cell-based
outcomeMeasure: pKi
Answer as the number alone; pKi is minus log10 of concentration in mol/L.

Asked: Read the entry `C[N+](C)(CCCCCC[N+](C)(C)CCCN1C(=O)c2ccccc2C1=O)CCCN1C(=O)c2ccccc2C1=O` and write its reported pKi.
Given back: 7.50

----------
The following compounds are shown together with reported IC50 values.
targetSystem: Muscarinic acetylcholine receptor M2 (Homo sapiens)
protocolDescription: Competitive antagonist activity at human muscarinic acetylcholine receptor M2 expressed in HEK293 cells coexpressing HA tagged Galpha-protein qi5 assessed as inhibition of 10 uM carbachol-induced IP1 accumulation preincubated for 30 mins followed by carbachol addition measured after 1 hr by HTRF assay
Type: functional, cell-based
Numbers only; they are read as nM.

smilesRecord: CCC(=O)NCc1cc(C(=O)NCCNC(=O)CCc2cn(CCCCC3CCN(CC(=O)N4c5ccccc5NC(=O)c5ccccc54)CC3)cn2)cc(C(=O)NCCNC(=O)CCc2cn(CCCCC3CCN(CC(=O)N4c5ccccc5NC(=O)c5ccccc54)CC3)cn2)c1.O=C(O)C(F)(F)F.O=C(O)C(F)(F)F.O=C(O)C(F)(F)F.O=C(O)C(F)(F)F
IC50 (nM): 263

Would you kindly look at the next entry?
Asked: Tell me its IC50 given `CCC(=O)NCCNC(=O)CCc1cn(CCCCC2CCN(CC(=O)N3c4ccccc4NC(=O)c4ccccc43)CC2)cn1` as the entry.
Given back: 355

----------
The compounds listed here are annotated with their IC50.
targetSystem: Muscarinic acetylcholine receptor M2 (Homo sapiens, UniProt P08172)
protocolDescription: Competitive antagonist activity at human muscarinic acetylcholine receptor M2 expressed in HEK293 cells coexpressing HA tagged Galpha-protein qi5 assessed as inhibition of 0.1 uM carbachol-induced IP1 accumulation preincubated for 30 mins followed by carbachol addition measured after 1 hr by HTRF assay
Type: functional, cell-based
Respond with the bare value in nM.

smilesRecord: CCC(=O)NCc1cc(C(=O)NCCNC(=O)CCc2cn(CCCCC3CCN(CC(=O)N4c5ccccc5NC(=O)c5ccccc54)CC3)cn2)cc(C(=O)NCCNC(=O)CCc2cn(CCCCC3CCN(CC(=O)N4c5ccccc5NC(=O)c5ccccc54)CC3)cn2)c1.O=C(O)C(F)(F)F.O=C(O)C(F)(F)F.O=C(O)C(F)(F)F.O=C(O)C(F)(F)F
targetSystem: Muscarinic acetylcholine receptor M2 (Homo sapiens, UniProt P08172)
experimentalResult: 16.6

Asked: Fill in IC50 for record `CCC(=O)NCCNC(=O)CCc1cn(CCCCC2CCN(CC(=O)N3c4ccccc4NC(=O)c4ccccc43)CC2)cn1`
Given back: 33.9

----------
// Ki lookup, one value per entry
targetSystem: Muscarinic acetylcholine receptor M2 (Homo sapiens, UniProt P08172)
protocolDescription: Displacement of [3H]UNSW-MK259 from human muscarinic acetylcholine receptor M2 expressed in CHOK9 cells after 3 hrs by liquid scintillation counting assay
Type: cell-based
Write it as a number; the unit µM goes unstated.

These recorded examples may help you get a feel for the data.
smilesRecord: C[N+](C)(CCCCCC[N+](C)(C)CCCN1C(=O)c2ccccc2C1=O)CCCN1C(=O)c2ccccc2C1=O
targetSystem: Muscarinic acetylcholine receptor M2 (Homo sapiens, UniProt P08172)
experimentalResult: 0.0398
//
smilesRecord: CCC(=O)NCCNC(=O)CCc1cn(CCCCC2CCN(CC(=O)N3c4ccccc4NC(=O)c4ccccc43)CC2)cn1
targetSystem: Muscarinic acetylcholine receptor M2 (Homo sapiens, UniProt P08172)
experimentalResult: 0.0011

Asked: Please give the documented Ki of `CCC(=O)NCc1cc(C(=O)NCCNC(=O)CCc2cn(CCCCC3CCN(CC(=O)N4c5ccccc5NC(=O)c5ccccc54)CC3)cn2)cc(C(=O)NCCNC(=O)CCc2cn(CCCCC3CCN(CC(=O)N4c5ccccc5NC(=O)c5ccccc54)CC3)cn2)c1.O=C(O)C(F)(F)F.O=C(O)C(F)(F)F.O=C(O)C(F)(F)F.O=C(O)C(F)(F)F`
Given back: 0.000107

Asked: Give the reported value of Ki for this record: `O=C1CCCN1CC#CCN1CCCC1`
Given back: 0.148
